- TEST: Pharmacokinetics in rats
- Type: in vivo, Sprague Dawley rats
- ASSAY CONDITIONS: male, Sprague Dawley, whole blood; rat, PO, 10 mg kg^–1
READOUT: Tmax (h)
Note: unit h is implicit; provide only the numeric part.

-- ask Quick one: Tmax for CC(C)(O)CC(=O)c1sc(Nc2ccc(F)c(F)c2)nc1N [Compound 38] ?
-- reply 4

----------
- TEST: Human microsomal intrinsic clearance
- Type: in vitro ADME
- ASSAY CONDITIONS: second value of mouse/human cell
Record form. Attribute: CLint (human). Fill in for each entry.
Note: unit mL·min/g is implicit; provide only the numeric part.

-- ask Quick one: CLint (human) for Nc1nc(NC2CCCCC2)sc1C(=O)c1ccc(OC(F)F)cc1 [Compound 26] ?
-- reply 0.8

-- ask Quick one: CLint (human) for CC(C)CC(=O)c1sc(Nc2ccc(F)c(F)c2)nc1N [Compound 37] ?
-- reply 3.2

----------
- TEST: Mammalian cell counter screen (MRC-5)
- Assay type: cell-based, human
- ASSAY CONDITIONS: human, MRC-5 fibroblasts; mean values; number of replicates in parentheses
Record form. Attribute: pEC50. Fill in for each entry.
Note: pEC50 values are expressed as the negative base-10 logarithm of concentration in M.

-- ask Quick one: pEC50 for `Nc1nc(NC2CCCCC2)sc1C(=O)c1ccc(OC(F)F)cc1` ?
-- reply 4.66

-- ask Quick one: pEC50 for `Nc1nc(Nc2ccc(F)c(F)c2)sc1C(=O)CCN1CCOCC1` ?
-- reply 4.54

-- ask Quick one: pEC50 for `CC(C)C(=O)c1sc(NC2CCCCC2)nc1N` ?
-- reply 5.00

-- ask Quick one: pEC50 for CC(OCC(=O)c1sc(Nc2ccn(C)n2)nc1N)C(F)(F)F (centres unmarked) ?
-- reply 5.03

-- ask Quick one: pEC50 for `Nc1nc(NC2CCCCC2)sc1C(=O)c1ccc(C(F)(F)F)cc1` ?
-- reply 4.43

-- ask Quick one: pEC50 for `Nc1nc(Nc2ccc(F)c(F)c2)sc1C(=O)CN1CCCCC1` ?
-- reply 4.31

-- ask Quick one: pEC50 for `Nc1nc(NC2CCCCC2)sc1C(=O)c1ccc(F)cc1F` ?
-- reply 5.19

-- ask Quick one: pEC50 for `Nc1nc(NC2CCCCC2)sc1C(=O)c1ccc(F)c(F)c1` ?
-- reply 4.38

-- ask Quick one: pEC50 for `CC(C)(F)CC(=O)c1sc(Nc2ccc(F)c(F)c2)nc1N` ?
-- reply 4.34

-- ask Quick one: pEC50 for `Nc1nc(NC2CCCCC2)sc1C(=O)c1cc(F)cc(F)c1` ?
-- reply 5.51

-- ask Quick one: pEC50 for `Nc1nc(NC2CCCCC2)sc1C(=O)C1CCCCC1` ?
-- reply 4.39

-- ask Quick one: pEC50 for `Nc1nc(Nc2ccc(F)c(F)c2)sc1C(=O)CN1CCCC1` ?
-- reply 4.32

-- ask Quick one: pEC50 for Nc1nc(Nc2ccc(F)c(F)c2)sc1C(=O)COC1CC(F)(F)C1(F)F (centres unmarked) ?
-- reply 4.54

-- ask Quick one: pEC50 for `Nc1nc(Nc2ccc(F)c(F)c2)sc1C(=O)CN1CCCC(F)(F)C1` ?
-- reply 5.30

-- ask Quick one: pEC50 for `Nc1nc(NC2CCCCC2)sc1C(=O)c1c(Cl)cccc1Cl` ?
-- reply 5.32

-- ask Quick one: pEC50 for `Nc1nc(NC2CCCCC2)sc1C(=O)c1ccc(F)cc1` ?
-- reply 4.68

-- ask Quick one: pEC50 for `Nc1nc(NC2CCCCC2)sc1C(=O)c1ccccc1C(F)(F)F` ?
-- reply 5.72

-- ask Quick one: pEC50 for CC(OCC(=O)c1sc(Nc2ccc(C(F)(F)F)cc2)nc1N)C(F)(F)F (centres unmarked) ?
-- reply 4.42

-- ask Quick one: pEC50 for `Nc1nc(Nc2ccc(F)c(F)c2)sc1C(=O)CN1CCC(F)(F)CC1` ?
-- reply 4.33

-- ask Quick one: pEC50 for `O=C(c1cnc(NC2CCCCC2)s1)c1c(F)cccc1F` ?
-- reply 4.33

-- ask Quick one: pEC50 for `Nc1nc(NC2CCCCC2)sc1C(=O)C1CCC1` ?
-- reply 4.89

-- ask Quick one: pEC50 for `Nc1nc(Nc2ccccc2)sc1C(=O)c1ccccc1` ?
-- reply 4.96
